Experiment: Transport across Caco-2 cell monolayer
Assay type: in vitro ADME
Settings: human, Caco-2; 10 μM
Method: Caco-2 cell (passage 38) was used in the transport experiments. Cells were seeded on polycarbonate filters (12 mm diameter, pore size […]) at 1 × 10^5/cm^2. The cell monolayer was formed 21 days post seeding when the transepithelial electrical resistance (TEER) was above 1,000 Ω• cm^2. […] The four lignans were determined by HPLC-MS method. The efflux rate (ER) was calculated by the formula ER = Papp (BL → AP)/Papp(AP → BL).
MEASUREMENT_NAME: Papp B→A at 2 h, 10 μM (×10⁻⁶ cm/s)
Reply with just the number (in ×10⁻⁶ cm/s).

For the molecule `COc1cc2c(c(OC)c1OC)-c1c(cc(OC)c(OC)c1OC)C[C@](C)(O)[C@@H](C)C2` , what Papp B→A at 2 h, 10 μM is on record?
2.03

Also need `COc1cc2c(c(OC)c1OC)-c1c(cc(OC)c(OC)c1OC)C[C@H](C)[C@@H](C)C2` , thanks.
1.52

Also need `COc1cc2c(c(OC)c1OC)-c1c(cc3c(c1OC)OCO3)C[C@H](C)[C@H](C)C2` , thanks.
1.34
